# assay-system: GST-tagged truncated human mutant G2019S LRRK2 (Homo sapiens, UniProt Q5S007, G2019S)
# test-details: LRRK2 G2019S Km ATP LanthaScreen assay
# Type: biochemical
# study-conditions: 134 μM ATP (Km ATP), LRRKtide substrate, mean IC50 values; read-out: LRRK2 pIC50 (converted)
# Experimental: Unless otherwise noted, all reactions are magnetically stirred. Unless otherwise noted, when diethyl ether is used in the experiments described below, it is Fisher ACS certified material and is stabilized with BHT. Unless otherwise noted, “concentrated” and/or “solvent removed under reduced pressure” means evaporating the solvent from a solution or mixture using a rotary evaporator or vacuum pump. […] The IC50 values reported herein were measured as follows. […]
observed-property: IC50 (nM)
Answers are plain numbers, in nM.

In: Return reported IC50; argument: "CC1(O)CCN(c2cc3nc(Nc4cnn(C56CC(C5)C6)c4)ncc3cc2Cl)CC1"
Out: 0.808

In: Return reported IC50; argument: CC1(N2CCN(c3cc4cc(Nc5cnn(C6CC6(F)F)c5Cl)ncc4cc3Cl)CC2)COCC1O (single isomer, unassigned)
Out: 3.12

In: Return reported IC50; argument: CCn1ncc(Nc2ncc3ccc(N4CCC4C)cc3n2)c1C (single isomer, unassigned) [Ex-1.11]
Out: 33.2

In: Return reported IC50; argument: "CN1CC2(C1)CN(c1cc3nc(Nc4cnn(C5(C)CC5)c4Cl)ncc3cc1Cl)C2"
Out: 1.24

In: Return reported IC50; argument: Cc1c(Nc2ncc3cc(Cl)c(N4CCN(C5(C)COCC5O)CC4)cc3n2)cnn1C1CC1(F)F (single isomer, unassigned) [Ex-6.40]
Out: 0.352

In: Return reported IC50; argument: Cc1c(Nc2ncc3cc(Cl)c(N4CCN(C5COCC5O)CC4)cc3n2)cnn1C (single isomer, unassigned)
Out: 0.603

In: Return reported IC50; argument: Cc1cc2cnc(Nc3cnn(C4CC4)c3C)nc2cc1N1CCN(C2(C)COCC2O)CC1 (single isomer, unassigned)
Out: 0.18

In: Return reported IC50; argument: "CC1(N2CCN(c3cc4nc(Nc5cnn(CC6CC6)c5Cl)ncc4cc3Cl)CC2)COC1"
Out: 0.625

For every item below, please supply its IC50.
1. Cc1c(Nc2ncc3cc(Cl)c(N4CCN(C5(C)COC(C)(C)C5)CC4)cc3n2)cnn1C1CC1 (single isomer, unassigned) [Ex-12.2]
2. Cc1c(Nc2ncc3cc(Cl)c(N4CCC(C)(O)CC4C)cc3n2)cnn1C1CC1 (single isomer, unassigned) [Ex-9.2]
3. CC1(N2CCN(c3cc4nc(Nc5cnn(C6CC(F)C6)c5Cl)ncc4cc3Cl)CC2)COC1 (centres unmarked)
4. Cc1cc2cnc(Nc3cnn(C)c3C)nc2cc1N1CCN([C@]2(C)COC[C@@H]2O)CC1
5. O[C@@H]1COCC12CCN(c1cc3nc(Nc4cnn(C5CC5)c4Cl)ncc3cc1Cl)CC2
6. OC[C@@H]1[C@H]2CN(c3cc4nc(Nc5cnn(CC(F)F)c5Cl)ncc4cc3Cl)C[C@@H]12

Out:
1. 0.721
2. 1.06
3. 4.01
4. 0.576
5. 17.2
6. 4.87

For every item below, please supply its IC50.
1. Cc1c(Nc2cc3cc(N4CCN([C@]5(C)COC[C@@H]5O)CC4)c(Cl)cc3cn2)cnn1C1CC1 (single isomer, unassigned) [Ex-1.1]
2. C[C@H]1COC(=O)N1c1ccc2cnc(Nc3cn(C4CCCCC4)nc3Cl)nc2c1

Out:
1: 0.716; 2: 7.01

For every item below, please supply its IC50.
1. OC1COCC1N1CCN(c2cc3nc(Nc4cnn(C5CC5(F)F)c4Cl)ncc3cc2Cl)CC1 (single isomer, unassigned) [Ex-6.31]
2. CC1(n2ncc(Nc3ncc4cc(Cl)c(N5CCN(C6COC6)CC5)cc4n3)c2Cl)CC1
3. CC1(N2CCN(c3cc4nc(Nc5ccnn5C(C)(C)C)ncc4cc3Cl)CC2)COCC1O (single isomer, unassigned)
4. CC1(n2ncc(Nc3ncc4cc(Cl)c(N5CCN(CCC#N)CC5)cc4n3)c2Cl)CC1

Out:
[17.9, 0.954, 11.4, 1.07]

For every item below, please supply its IC50.
1. O[C@H]1COCC12CCN(c1cc3nc(Nc4cnn(C5CC5)c4Cl)ncc3cc1Cl)CC2
2. C[C@@]1(N2CCN(c3cc4nc(Nc5cnn(C6CC6)c5C(F)F)ncc4cc3Cl)CC2)COC[C@@H]1O
3. C[C@]1(O)[C@@H]2CC[C@H]1CN(c1cc3nc(Nc4cnn(C5CC5)c4Cl)ncc3cc1Cl)C2
4. Cc1c(Nc2ncc3cc(Cl)c(N4CCN(C5COCC5O)CC4)cc3n2)cnn1CC(F)F (single isomer, unassigned) [Ex-6.26]

Out:
1: 1.06; 2: 0.08; 3: 11.2; 4: 11.5

Each recorded value in this set is attributed to patent US20230303540A1.
